The reported measurements were obtained from patent US6479546B1.

- Study System: SLO-1 (Glycine max, UniProt P08170)
- Construct: made in house
- Assay Notes: Steady state kinetics / inhibition studies, SLO-1
- Assay type: biochemical, soybean
- Condition Context: fit to Km (app) saturation curve, Eq. 3; read-out: Ki
Counter-ions that a name gives are not always drawn.
Endpoint Name: pKi
Answers are plain numbers, as −log10 of the molar value.

Recorded pKi of CCCCCCCC/C=C\CCCCCCCCOS(=O)(=O)O [OS, (Z)-9-octadecenyl sulfate] , please. 6.35

----------
- Study System: SLO-1 (Glycine max)
- Construct: made in house
- Sequence (P08170 1-839): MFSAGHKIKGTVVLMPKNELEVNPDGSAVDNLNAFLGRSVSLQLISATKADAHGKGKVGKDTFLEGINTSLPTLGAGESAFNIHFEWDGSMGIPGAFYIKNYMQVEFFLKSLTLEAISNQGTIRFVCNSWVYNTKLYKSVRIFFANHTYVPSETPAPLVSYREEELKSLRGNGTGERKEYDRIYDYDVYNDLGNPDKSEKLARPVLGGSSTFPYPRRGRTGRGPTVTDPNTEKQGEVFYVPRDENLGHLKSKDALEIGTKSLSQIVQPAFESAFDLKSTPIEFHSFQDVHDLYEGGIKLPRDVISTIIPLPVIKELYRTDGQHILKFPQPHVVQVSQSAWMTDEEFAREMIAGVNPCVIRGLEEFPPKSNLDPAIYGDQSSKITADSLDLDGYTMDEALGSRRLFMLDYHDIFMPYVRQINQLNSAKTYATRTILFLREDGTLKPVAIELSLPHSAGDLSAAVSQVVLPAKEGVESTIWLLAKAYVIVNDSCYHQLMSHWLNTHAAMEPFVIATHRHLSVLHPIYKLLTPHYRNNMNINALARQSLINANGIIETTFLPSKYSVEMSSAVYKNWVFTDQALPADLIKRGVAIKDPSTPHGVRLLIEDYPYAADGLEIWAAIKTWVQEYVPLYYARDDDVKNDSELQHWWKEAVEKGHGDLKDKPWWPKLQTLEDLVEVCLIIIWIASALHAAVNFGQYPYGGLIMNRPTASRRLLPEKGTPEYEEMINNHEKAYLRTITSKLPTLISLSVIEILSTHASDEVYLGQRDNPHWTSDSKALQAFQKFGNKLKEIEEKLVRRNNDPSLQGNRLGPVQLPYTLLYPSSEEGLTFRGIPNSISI
- Assay Notes: Steady state kinetics / inhibition studies, SLO-1
- Type: biochemical, soybean
- Condition Context: fit to kcat/Km data, Eq. 4, β approximated 0.85; read-out: Ki
Counter-ions that a name gives are not always drawn.
Endpoint Name: pKi
Answers are plain numbers, as −log10 of the molar value.

Recorded pKi of CCCCCCCC/C=C\CCCCCCCCOS(=O)(=O)O [OS, (Z)-9-octadecenyl sulfate] , please. 6.07
